A set of compounds tested on AcpS (Escherichia coli, UniProt P24224), with measured pIC50:
Interpret pIC50 as the negative base-10 log of the concentration measured in mol/L.

Entry Clc1cccc(-c2ccccc2-c2cc(-c3nnn[nH]3)cc(-c3ccccc3-c3cccc(Cl)c3)c2)c1 [DNM0493] ; pIC50 = 4.85

Entry Cc1ccc(-c2sc(-c3ccccc3-c3ccccc3)cc2-c2nnn[nH]2)c2ccccc12 [DNM0472] ; pIC50 = 5.00

Entry CCCCc1cccc(-c2cc(-c3nnn[nH]3)sc2Cc2ccccc2)c1 [DNM0626] ; pIC50 = 5.05

Entry Cc1ccc(-c2ccccc2-c2cc(-c3nnn[nH]3)c(-c3ccccc3-c3ccc(C)c(C)c3)s2)cc1C [DNM0495] ; pIC50 = 5.00
